Assayed System: PDZRN4_2, Q6ZMN7
Sequence (Q6ZMN7 389-498): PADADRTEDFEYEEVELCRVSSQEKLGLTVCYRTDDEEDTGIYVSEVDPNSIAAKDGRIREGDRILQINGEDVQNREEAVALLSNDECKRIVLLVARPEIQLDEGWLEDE
Assay Name: holdup assay
Design: key: below the threshold = too weak to quantify, mostly under pKd 3.1 to 4
Assay Context: plain residues with an end cap or a label only (N-terminal biotin on a linker: ttds)
Quantity Name: pKd

{"Binder": "KLVIKTETTV [RASSF6, Q6ZTQ3]", "Quantity Name": "pKd", "Reported": "below the threshold"}
{"Binder": "SRSRRRETAL [HPV33-E6, P06427]", "Quantity Name": "pKd", "Reported": "below the threshold"}
{"Binder": "PSRDRKETSI [RALBP1, Q15311]", "Quantity Name": "pKd", "Reported": "below the threshold"}
